# Test system: SW 1271 complex spheroids, viability
# test-method-notes: Anticancer human tumor SW 1271 cell line growth inhibition [LSD1];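 also: spheroids exposed to agents for 7 days before luminescence read; 100% = DMSO vehicle control viability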
# assay-setup: second compound 10 µM; first compound 0.1 µM; active compounds read low
Entries and their viability, T/C

{"compound": "Nc1ncn(C2CC(O)C(CO)O2)c(=O)n1 (centres undefined) + NC1CC1c1ccc(-c2cccc(O)c2)cc1", "system": "SW 1271 complex spheroids, viability", "viability, T/C (%)": 57.9}
{"compound": "CC[C@@]1(O)C(=O)OCc2c1cc1n(c2=O)Cc2cc3c(CN(C)C)c(O)ccc3nc2-1 + NC1CCC(NC2CC2c2ccccc2)CC1", "system": "SW 1271 complex spheroids, viability", "viability, T/C (%)": 52.2}
{"compound": "O=C(C=Cn1cnc(-c2cc(C(F)(F)F)cc(C(F)(F)F)c2)n1)NNc1cnccn1 + NC1CC1c1ccc(-c2cccc(O)c2)cc1", "system": "SW 1271 complex spheroids, viability", "viability, T/C (%)": 55.3}
{"compound": "CC(C)c1c(-c2ccccc2)nc2c(C#N)c[nH]n2c1=O + NC1CCC(NC2CC2c2ccccc2)CC1", "system": "SW 1271 complex spheroids, viability", "viability, T/C (%)": 60.5}
{"compound": "COc1ccc([C@@H](O)c2cc(-c3ncnc4cc(N5CCOCC5)ccc34)c(F)cc2Cl)nn1 + NC1CCC(NC2CC2c2ccccc2)CC1", "system": "SW 1271 complex spheroids, viability", "viability, T/C (%)": 60}
{"compound": "O=C(C=Cn1cnc(-c2cc(C(F)(F)F)cc(C(F)(F)F)c2)n1)NNc1cnccn1 + NC1CCC(NC2CC2c2ccccc2)CC1", "system": "SW 1271 complex spheroids, viability", "viability, T/C (%)": 59}
{"compound": "CC1COCCN1c1cc(-c2ccnn2C)c2ccnc(-c3ccn[nH]3)c2n1 (centres undefined) + NC1CCC(NC2CC2c2ccccc2)CC1", "system": "SW 1271 complex spheroids, viability", "viability, T/C (%)": 41.8}
{"compound": "CC1(C)CCC(CN2CCN(c3ccc(C(=O)NS(=O)(=O)c4ccc(NCC5CCOCC5)c([N+](=O)[O-])c4)c(Oc4cnc5[nH]ccc5c4)c3)CC2)=C(c2ccc(Cl)cc2)C1 + NC1CCC(NC2CC2c2ccccc2)CC1", "system": "SW 1271 complex spheroids, viability", "viability, T/C (%)": 102}
{"compound": "Nc1ncn(C2CC(O)C(CO)O2)c(=O)n1 (centres undefined) + NC1CCC(NC2CC2c2ccccc2)CC1", "system": "SW 1271 complex spheroids, viability", "viability, T/C (%)": 81.8}
{"compound": "O=C(c1cc(Cc2n[nH]c(=O)c3ccccc23)ccc1F)N1CCN(C(=O)C2CC2)CC1 + NC1CCC(NC2CC2c2ccccc2)CC1", "system": "SW 1271 complex spheroids, viability", "viability, T/C (%)": 95.9}
{"compound": "CC(C)CC(NC(=O)CNC(=O)c1cc(Cl)ccc1Cl)B1OC(=O)CC(CC(=O)O)(C(=O)O)O1 (centres undefined) + NC1CC1c1ccc(-c2cccc(O)c2)cc1", "system": "SW 1271 complex spheroids, viability", "viability, T/C (%)": 0.18}
{"compound": "COc1cc(Nc2ncc3c(n2)-c2ccc(Cl)cc2C(c2c(F)cccc2OC)=NC3)ccc1C(=O)O + NC1CC1c1ccc(-c2cccc(O)c2)cc1", "system": "SW 1271 complex spheroids, viability", "viability, T/C (%)": 43}
{"compound": "COc1cc(Nc2ncc3c(n2)-c2ccc(Cl)cc2C(c2c(F)cccc2OC)=NC3)ccc1C(=O)O + NC1CCC(NC2CC2c2ccccc2)CC1", "system": "SW 1271 complex spheroids, viability", "viability, T/C (%)": 59.2}
{"compound": "COc1ccc([C@@H](O)c2cc(-c3ncnc4cc(N5CCOCC5)ccc34)c(F)cc2Cl)nn1 + NC1CC1c1ccc(-c2cccc(O)c2)cc1", "system": "SW 1271 complex spheroids, viability", "viability, T/C (%)": 58.4}
